- tgt: NLRP3 inflammasome (Homo sapiens, UniProt Q96P20)
- Sequence (Q96P20 whole entry): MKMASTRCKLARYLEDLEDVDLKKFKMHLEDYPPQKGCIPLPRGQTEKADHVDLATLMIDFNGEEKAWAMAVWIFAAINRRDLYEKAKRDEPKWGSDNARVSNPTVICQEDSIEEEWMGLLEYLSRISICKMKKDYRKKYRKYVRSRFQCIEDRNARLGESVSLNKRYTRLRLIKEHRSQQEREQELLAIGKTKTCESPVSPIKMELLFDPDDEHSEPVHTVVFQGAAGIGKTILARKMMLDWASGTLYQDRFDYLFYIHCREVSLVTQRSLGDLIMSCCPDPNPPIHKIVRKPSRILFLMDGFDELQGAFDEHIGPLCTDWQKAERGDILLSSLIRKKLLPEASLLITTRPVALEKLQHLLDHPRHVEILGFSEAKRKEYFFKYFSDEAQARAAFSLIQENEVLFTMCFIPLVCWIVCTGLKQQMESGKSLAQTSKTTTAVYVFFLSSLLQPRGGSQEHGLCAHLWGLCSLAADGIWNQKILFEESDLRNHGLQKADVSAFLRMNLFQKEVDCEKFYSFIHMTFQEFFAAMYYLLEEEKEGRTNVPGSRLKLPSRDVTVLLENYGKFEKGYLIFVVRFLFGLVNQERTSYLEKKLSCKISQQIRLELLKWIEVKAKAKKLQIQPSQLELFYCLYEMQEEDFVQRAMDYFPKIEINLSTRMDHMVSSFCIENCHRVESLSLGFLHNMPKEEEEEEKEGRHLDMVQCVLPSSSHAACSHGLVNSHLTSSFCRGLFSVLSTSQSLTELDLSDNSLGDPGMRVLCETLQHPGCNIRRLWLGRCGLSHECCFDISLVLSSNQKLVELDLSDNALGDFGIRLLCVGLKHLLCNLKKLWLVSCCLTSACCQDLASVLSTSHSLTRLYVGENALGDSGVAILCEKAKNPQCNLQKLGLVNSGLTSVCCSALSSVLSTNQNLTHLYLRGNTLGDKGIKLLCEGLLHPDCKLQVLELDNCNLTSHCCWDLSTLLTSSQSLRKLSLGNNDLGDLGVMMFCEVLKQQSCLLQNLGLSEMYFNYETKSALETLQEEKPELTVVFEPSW
- measurement_description: NLRP3 inflammasome activation in THP1 macrophages (LPS priming, nigericin), IL-1β AlphaLISA
- assay_setup: PMA-differentiated THP1, LPS 20 ng/ml 3 hrs, compound 1 hr, Nigericin 6.7 uM 3 hrs, supernatant
Listed compounds paired with reported IC50

item_smiles	tgt	IC50
Cc1cc(N[C@H]2CN(C)CC(F)(F)C2)nnc1-c1ccc(F)cc1	NLRP3 inflammasome (Homo sapiens, UniProt Q96P20)	> 1000 nM
CN1CCC[C@@H](Nc2cc(C(F)(F)F)c(-c3ccc(F)cc3)nn2)C1	NLRP3 inflammasome (Homo sapiens, UniProt Q96P20)	≤ 10 nM
Cc1cc(-c2ccc(OC(F)(F)F)cc2)nnc1N[C@@H]1CCCN(C)C1	NLRP3 inflammasome (Homo sapiens, UniProt Q96P20)	> 1000 nM
Cc1cc(N[C@@H]2CCCN(C)C2)nnc1-c1cccc(C(C)C)c1	NLRP3 inflammasome (Homo sapiens, UniProt Q96P20)	500 to 1000 nM

Here is the next item to consider.
Query: For the record Cc1cc(-c2ccc(C(F)(F)F)cc2C#N)nnc1N[C@@H]1CCCN(C)C1 , what value of IC50 is listed for NLRP3 inflammasome (Homo sapiens, UniProt Q96P20)?
Response: 100 to 500 nM

* * *

Overview of recorded pIC50 for various compounds
- tgt: NLRP3 inflammasome (Homo sapiens, UniProt Q96P20)
- measurement_description: NLRP3 inflammasome activation in THP1 macrophages (LPS priming, nigericin), IL-1β AlphaLISA
- assay_setup: PMA-differentiated THP1, LPS 20 ng/ml 3 hrs, compound 1 hr, Nigericin 6.7 uM 3 hrs, supernatant
pIC50: −log10 of the molar value.

Previously resolved entries follow.
item_smiles	tgt	pIC50
Cc1cc(N[C@@H]2CCCN(C)C2)nnc1-c1ccc(Cl)cc1	NLRP3 inflammasome (Homo sapiens, UniProt Q96P20)	≥ 8.00
Cc1cc(-c2ccc(Cl)cc2F)nnc1N[C@@H]1CCCN(C)C1	NLRP3 inflammasome (Homo sapiens, UniProt Q96P20)	6.30 to 7.00
Cc1cc(N[C@@H]2CCCN(C)C2)nnc1-c1ccc(C(F)(F)F)c(C#N)c1	NLRP3 inflammasome (Homo sapiens, UniProt Q96P20)	6.30 to 7.00
Cc1cc(C(F)F)ccc1-c1ccc(N[C@@H]2CCCN(C)C2)nn1	NLRP3 inflammasome (Homo sapiens, UniProt Q96P20)	7.00 to 7.30
CN1CCC[C@@H](Nc2ccc(-c3ccc(F)cc3)nn2)C1	NLRP3 inflammasome (Homo sapiens, UniProt Q96P20)	< 6.00
Cc1cc(N[C@@H]2CCCN(C)C2)nnc1-c1ccc(Cl)cc1F	NLRP3 inflammasome (Homo sapiens, UniProt Q96P20)	< 6.00
Cc1cc(N[C@@H]2CCCN(CCF)C2)nnc1-c1ccc(C(F)(F)F)cc1	NLRP3 inflammasome (Homo sapiens, UniProt Q96P20)	7.00 to 7.30
Cc1cccc(C(F)F)c1-c1ccc(N[C@@H]2CCCN(C)C2)nn1	NLRP3 inflammasome (Homo sapiens, UniProt Q96P20)	< 6.00

Query: Please give the measured pIC50 for this compound: CN1CCC[C@@H](Nc2cc(C#N)c(-c3ccc(C(F)(F)F)cc3)nn2)C1
Response: 7.00 to 7.30

Query: And CN1CCC[C@@H](Nc2nnc(-c3ccc(C(F)(F)F)cc3)cc2Cl)C1 ?
Response: 6.30 to 7.00

Query: What do we get for Cc1cc(N[C@@H]2CCCN(C)C2)nnc1-c1ccc(C(F)(F)F)cc1C(F)F ?
Response: ≥ 8.00

Query: Follow-up entry: Cc1cc(F)ccc1-c1cc(F)c(N[C@@H]2CCCN(C)C2)nn1
Response: 6.30 to 7.00

Query: Here is the next compound: Cc1cc(-c2ccc(N[C@@H]3CCCN(C)C3)nn2)c(C)cc1F
Response: 7.30 to 8.00

Query: Record: Cc1cc(-c2ccc(F)cc2F)nnc1N[C@@H]1CCCN(C)C1
Response: < 6.00

Query: Param item: Cc1cc(N[C@@H]2CCCN(C)C2)nnc1-c1ccc(C(F)(F)F)cc1C#N
Response: 7.00 to 7.30

Query: How about Cc1cc(F)ccc1-c1nnc(N[C@@H]2CCCN(C)C2)cc1C ?
Response: 7.30 to 8.00

Query: Next: CCN1C[C@H](F)C[C@@H](Nc2cc(C)c(-c3ccc(C(F)(F)F)cc3)nn2)C1
Response: ≥ 8.00

Query: Also check Cc1cc(N[C@@H]2CCCN(CC3CC3)C2)nnc1-c1ccc(C(F)(F)F)cc1
Response: ≥ 8.00

Query: What about Cc1cc(-c2ccc(C(F)(F)F)c(Cl)c2)nnc1N[C@@H]1CCCN(C)C1 ?
Response: < 6.00

Query: Try this compound next: Cc1cc(N[C@@H]2C[C@@H](F)CN(C)C2)nnc1-c1ccc(C(F)(F)F)cc1
Response: 7.00 to 7.30

Query: Queued: Cc1cc(N[C@@H]2C[C@@H](F)CN(C(C)C)C2)nnc1-c1ccc(Cl)cc1
Response: 7.30 to 8.00

Query: Then Cc1cc(N[C@@H]2CCCN(C)C2)nnc1-c1ccc(C2CCC2)cc1 ?
Response: 6.30 to 7.00

Query: Likewise for Cc1cc(C(F)(F)F)ccc1-c1nnc(N[C@@H]2CCCN(C)C2)cc1O ?
Response: 6.00 to 6.30

Query: What about Cc1cc(N[C@@H]2CCCN(CC3CC3)C2)nnc1-c1ccc(F)cc1 ?
Response: ≥ 8.00

* * *

Recorded IC50, one value per entry.
- tgt: NLRP3 inflammasome (Homo sapiens, UniProt Q96P20)
- measurement_description: NLRP3 inflammasome activation in THP1 macrophages (LPS priming, nigericin), IL-1β AlphaLISA
- Type: cell-based
- assay_setup: PMA-differentiated THP1, LPS 20 ng/ml 3 hrs, compound 1 hr, Nigericin 6.7 uM 3 hrs, supernatant

molecule	IC50
COc1ccc(-c2cc(C)c(N[C@@H]3CCCN(C)C3)nn2)cc1 [compound 58]	> 1000 nM
Cc1cc(N[C@@H]2CCCCN(C)C2)nnc1-c1ccc(C(F)(F)F)cc1 [compound 176]	50 to 100 nM
Cc1cc(N[C@@H]2C[C@@H](F)CN(C(C)C)C2)nnc1-c1ccc(F)cc1 [compound 190]	50 to 100 nM
Cc1cc(-c2cccc(F)c2)nnc1N[C@@H]1CCCN(C)C1 [compound 56]	> 1000 nM
Cc1cc(N[C@@H]2CCCN(C3CC3)C2)nnc1-c1ccc(F)cc1 [compound 120]	50 to 100 nM

Query: Quick one: IC50 of Cc1cc(-c2ccc(N[C@@H]3CCCN(C)C3)nn2)cc(C)c1F [compound 106] ?
Response: > 1000 nM

Query: Can you check Cc1cc(C(F)(F)F)ccc1-c1ccc(N[C@@H]2CCCN(C)C2)nn1 [compound 19] next?
Response: 100 to 500 nM

Query: Could you do the same for Cc1cc(N[C@@H]2CCCN(C)C2)nnc1-c1ccc(O)cc1 [compound 104] , please?
Response: > 1000 nM

Query: Proceed to COc1cc(F)cc(C)c1-c1ccc(N[C@@H]2CCCN(C)C2)nn1 [compound 164]
Response: > 1000 nM

Query: Item: Cc1cc(Cl)ccc1-c1nnc(N[C@@H]2CCN(C)C2)cc1C [compound 187]
Response: > 1000 nM

Query: What about this molecule? Cc1cc(N[C@@H]2C[C@@H](F)CN(C)C2)nnc1-c1ccc(F)cc1 [compound 140]
Response: > 1000 nM

* * *

- tgt: NLRP3 inflammasome (Homo sapiens, UniProt Q96P20)
- measurement_description: NLRP3 inflammasome activation in THP1 macrophages (LPS priming, nigericin), IL-1β AlphaLISA
- assay_setup: PMA-differentiated THP1, LPS 20 ng/ml 3 hrs, compound 1 hr, Nigericin 6.7 uM 3 hrs, supernatant
pIC50: −log10 of the molar value.
Examples of compounds with documented pIC50 follow.

Query: Fill in the blank: the reported pIC50 of Cc1ccc(-c2ccc(N[C@@H]3CCCN(C)C3)nn2)c(C)c1 is ____.
Response: 6.30 to 7.00

* * *

- tgt: NLRP3 inflammasome (Homo sapiens)
- measurement_description: NLRP3 inflammasome activation in THP1 macrophages (LPS priming, nigericin), IL-1β AlphaLISA
- Format: cell-based
- assay_setup: PMA-differentiated THP1, LPS 20 ng/ml 3 hrs, compound 1 hr, Nigericin 6.7 uM 3 hrs, supernatant
IC50 reference

item_smiles	IC50
Cc1cc(N[C@@H]2CCCN(C)C2)nnc1-c1ccc(Cl)cc1C(F)F	≤ 10 nM

Continue with the compound presented below.
Query: Return IC50 measured with NLRP3 inflammasome (Homo sapiens) given this compound: CCN(c1cc(C)c(-c2ccc(C(F)(F)F)cc2)nn1)[C@@H]1CCCN(C)C1
Response: 100 to 500 nM

* * *

- tgt: NLRP3 inflammasome (Homo sapiens, UniProt Q96P20)
- measurement_description: NLRP3 inflammasome activation in THP1 macrophages (LPS priming, nigericin), IL-1β AlphaLISA
- assay_setup: PMA-differentiated THP1, LPS 20 ng/ml 3 hrs, compound 1 hr, Nigericin 6.7 uM 3 hrs, supernatant
IC50 listing for selected molecules.

molecule	observed_measurement
CCc1cc(-c2ccc(C(F)(F)F)cc2)nnc1N[C@@H]1CCCN(C)C1 [compound 30]	100 to 500 nM
CCN1CCC[C@@H](Nc2cc(C)c(-c3ccc(Cl)cc3C)nn2)C1 [compound 201]	≤ 10 nM

Now examine the next entry.
Query: Requested read-out: IC50. Entry: Cc1cc(N[C@@H]2CCCN(CC(F)F)C2)nnc1-c1ccc(F)cc1 [compound 116]
Response: > 1000 nM
